- System: 786-0
- protocol_text: NCI tumour cell line growth inhibition, 48 h
The source made the active and inactive calls. Rule as the data show it: active = GI50 up to about 1.1 µM and inactive = higher.
// one of label 1 = active, label 0 = inactive, no free text

Please review the entries below; each comes with its answer.
>>> category_label("Cc1c(C(=O)C/C(=N/NC(=O)c2ccccc2O)C(=O)Nc2ccccc2C(C)C)[n+]([O-])c2ccccc2[n+]1[O-]")
"label 0"
>>> category_label("CCC(=O)C(C)C1=Nc2nnc(CCCCCCCc3nnc4n3C(=O)C(C(C)C(=O)CC)=N4)n2C1=O (stereo not drawn)")
"label 0"
>>> category_label("O=C(CBr)NCCc1c[nH]c2ccccc12")
"label 0"

Ask | Give the logged outcome of this assay for the following compound: COC(=O)[C@]1(c2cc3ccccc3n2S(=O)(=O)c2ccccc2)CC2CN(C(C)=O)C1CC2=O (stereo partly drawn)
Reply | label 0

Ask | Check the results log: what was the call for CC1C(=O)OCC2=CCN3CCC(OC(=O)C(C)C1(C)O)C23 (stereo not drawn) ?
Reply | label 0

Ask | Test call, this compound: O=[N+]([O-])c1ccc(/C=N/C23CC4CC(CC(C4)C2)C3)cc1
Reply | label 0

Ask | # fetch the recorded call for Nc1ccc(S(=O)(=O)Nc2cnc3ccccc3n2)cc1 here
Reply | label 0

Ask | What did this assay record as the result for Cc1cc2nc(-c3c(F)cccc3F)n(Cc3c(F)cccc3F)c2cc1C ?
Reply | label 0

Ask | For O=C1C(CN2CCCCC2)CCCC1CN1CCCCC1 (stereo not drawn) , what call appears in the results of this test?
Reply | label 0

Ask | Returns: the outcome recorded for COc1cc2cnc3c4cc(OC(C)C)c(OC)cc4ccc3c2cc1OC in this assay.
Reply | label 0

Ask | So what was the verdict on CCC1(C(=O)OC)CCc2c(OC)ccc(OC)c2C1=O (stereo not drawn) in this test?
Reply | label 0

Ask | For CCOC(=O)CCC(NC(=O)OCc1ccccc1)C(=O)NNC(=O)OC(C)(C)C (stereo not drawn) , which call appears in the assay record?
Reply | label 0
